# experimental_protocol: Approximate solubility test of Compound I at room temperature / 50° C. in different solvents
# Type: physicochemical
# test_parameters: organic solvent or mixture, thermodynamic from solid; IPA/H2O = 95/5(V/V), 50° C.; read-out: Solubility (mg/mL) 50° C.
measured_metric: solubility

For reference, reported solubility for Cn1cnc(C2CC3CC(O)(c4cc(OCC(C)(C)O)nn4C)CC3C2)c1C(=O)Nc1ccc(F)c(Cl)c1 (stereo not shown) [Compound I] stands at 8 to 8.1 mg/mL

###

# experimental_protocol: Approximate solubility test of Compound I at room temperature / 50° C. in different solvents
# Format: physicochemical
# test_parameters: organic solvent or mixture, thermodynamic from solid; IPAc, 50° C.; read-out: Solubility (mg/mL) 50° C.
measured_metric: solubility

For reference, reported solubility for Cn1cnc(C2CC3CC(O)(c4cc(OCC(C)(C)O)nn4C)CC3C2)c1C(=O)Nc1ccc(F)c(Cl)c1 (stereo not shown) stands at < 3.3 mg/mL

###

# experimental_protocol: Approximate solubility of Compound I, Type 1 at RT in twenty solvents (stepwise solvent addition)
# Format: physicochemical
# test_parameters: organic solvent or mixture, thermodynamic from solid, Toluene, read-out: Approximate Solubility (mg/mL) at RT
measured_metric: solubility

For reference, reported solubility for "Cn1cnc([C@@H]2C[C@@H]3C[C@@](O)(c4cc(OCC(C)(C)O)nn4C)C[C@@H]3C2)c1C(=O)Nc1ccc(F)c(Cl)c1" stands at < 2.5 mg/mL

###

# experimental_protocol: Approximate solubility of Compound I, Type 1 at RT in twenty solvents (stepwise solvent addition)
# Type: physicochemical
# test_parameters: organic solvent or mixture, thermodynamic from solid, DMSO, read-out: Approximate Solubility (mg/mL) at RT
measured_metric: solubility

For reference, reported solubility for "Cn1cnc([C@@H]2C[C@@H]3C[C@@](O)(c4cc(OCC(C)(C)O)nn4C)C[C@@H]3C2)c1C(=O)Nc1ccc(F)c(Cl)c1" stands at > 48 mg/mL

###

# experimental_protocol: Approximate solubility of Compound I, Type 1 at RT in twenty solvents (stepwise solvent addition)
# Assay type: physicochemical
# test_parameters: organic solvent or mixture, thermodynamic from solid, MTBE, read-out: Approximate Solubility (mg/mL) at RT
# Experimental: The solubility of Compound I, Type 1 (6036531-01-A) was estimated at RT in twenty different solvents. Approximately 2 mg solids were added into a 3-mL glass vial. Solvents in Table 39 were then added stepwise (50 μL per step) into the vials until the solids were dissolved or a total volume of 2 mL was reached.
measured_metric: solubility

For reference, reported solubility for "Cn1cnc([C@@H]2C[C@@H]3C[C@@](O)(c4cc(OCC(C)(C)O)nn4C)C[C@@H]3C2)c1C(=O)Nc1ccc(F)c(Cl)c1" stands at < 2 mg/mL

###

# experimental_protocol: Approximate solubility test of Compound I at room temperature / 50° C. in different solvents
# Type: physicochemical
# test_parameters: organic solvent or mixture, thermodynamic from solid; MTBE, 50° C.; read-out: Solubility (mg/mL) 50° C.
measured_metric: solubility

For reference, reported solubility for Cn1cnc(C2CC3CC(O)(c4cc(OCC(C)(C)O)nn4C)CC3C2)c1C(=O)Nc1ccc(F)c(Cl)c1 (stereo not shown) [Compound I] stands at < 3.3 mg/mL

###

# experimental_protocol: Approximate solubility of Compound I, Type 1 at RT in twenty solvents (stepwise solvent addition)
# Type: physicochemical
# test_parameters: organic solvent or mixture, thermodynamic from solid, DCM, read-out: Approximate Solubility (mg/mL) at RT
measured_metric: solubility

For reference, reported solubility for "Cn1cnc([C@@H]2C[C@@H]3C[C@@](O)(c4cc(OCC(C)(C)O)nn4C)C[C@@H]3C2)c1C(=O)Nc1ccc(F)c(Cl)c1" stands at < 2.4 mg/mL
